- procedure-text: Kinetic assay of purified DAOCS with penicillin G (standard penicillin G assay, HPLC of cephalosporin G)
- Format: biochemical
- reported-conditions: for penicillin G; 20 μg purified DAOCS, 1 mM α-ketoglutarate, 30° C.; triplicate, Hanes-Woolf Plot
property: Km

Problem: Quick check: Km of YS87: mutated penicillin expandase (DAOCS) with substitution T91A (protein, UniProt P18548 1-311, looked up, variant T91A) Deacetoxycephalosporin C …: MDTTVPTFSLAELQQGLHQDEFRRCLRDKGLFYLTDCGLTDTELKSAKDLVIDFFEHGSEAEKRAVTSPVPTMRRGFTGLESESTAQITNAGSYSDYSMCYSMGTADNLFPSGDFERIWTQYFDRQYTASRAVAREVLRATGTEPDGGVEAFLDCEPLLRFRYFPQVPEHRSAEEQPLRMAPHYDLSMVTLIQQTPCANGFVSLQAEVGGAFTDLPYRPDAVLVFCGAIATLVTGGQVKAPRHHVAAPRRDQIAGSSRTSSVFFLRPNADFTFSVPLARECGFDVSLDGETATFQDWIGGNYVNIRRTSKA ?
Result: 1360 µM
